Test system: KRAS-mutant PDC multicell tumor spheroid viability
experimentDescription: Anticancer human tumor 521955-158-R2-J5-PDC patient-derived pancreatic carcinoma cell line growth inhibition [KRAS2]
reportedConditions: second compound 10 µM; first compound 3.16 µM; active compounds read low
We'd kindly ask you to apply these viability, T/C classes: bucket 1: < 2%; bucket 2: ≥ 2% and < 30%; bucket 3: ≥ 30%

compound	classification
O=C(c1cc(Cc2n[nH]c(=O)c3ccccc23)ccc1F)N1CCN(C(=O)C2CC2)CC1 + CNCc1ccccc1-c1csc(C(C)Nc2nc(C)nc3cc(OC)c(OC)cc23)c1	bucket 1

Prompt: Class label required: COc1cc2nccc(Oc3ccc(NC(=O)C4(C(=O)Nc5ccc(F)cc5)CC4)cc3)c2cc1OC + C=CC(=O)N1CCN(c2nc(=O)n(-c3c(C)ccnc3C(C)C)c3nc(-c4c(O)cccc4F)c(F)cc23)C(C)C1
Response: bucket 3

Prompt: Class label required: CC(C)NCC(C(=O)N1CCN(c2ncnc3c2C(C)CC3O)CC1)c1ccc(Cl)cc1 (stereo not given) + CNCc1ccccc1-c1csc(C(C)Nc2nc(C)nc3cc(OC)c(OC)cc23)c1
Response: bucket 2

Prompt: Class label required: Cn1nccc1Nc1nccc(-c2cc3c(s2)C(C)(C)N(CCN2CCOCC2)C3=O)n1 + CNCc1ccccc1-c1csc(C(C)Nc2nc(C)nc3cc(OC)c(OC)cc23)c1
Response: bucket 1

Prompt: Class label required: CC(C)NCC(C(=O)N1CCN(c2ncnc3c2C(C)CC3O)CC1)c1ccc(Cl)cc1 (stereo not given) + COc1cc2nc(C)nc(NC(C)c3cc(N)cc(C(F)(F)F)c3)c2cc1OC1CCOC1
Response: bucket 2

Prompt: Class label required: CC1COCCN1c1cc(-c2ccnn2C)c2ccnc(-c3ccn[nH]3)c2n1 (stereo not given) + CNCc1ccccc1-c1csc(C(C)Nc2nc(C)nc3cc(OC)c(OC)cc23)c1
Response: bucket 1

Prompt: Class label required: COc1cc(Nc2ncc3c(n2)-c2ccc(Cl)cc2C(c2c(F)cccc2OC)=NC3)ccc1C(=O)O + CNCc1ccccc1-c1csc(C(C)Nc2nc(C)nc3cc(OC)c(OC)cc23)c1
Response: bucket 1

====

# maps each entry to its viability, T/C
System: KRAS-mutant PDC multicell tumor spheroid viability
experimentDescription: Anticancer human tumor 521955-158-R2-J5-PDC cell line growth inhibition [KRAS2];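 note: viability read after seven days of drug exposure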
reportedConditions: second compound 1 µM; first compound 0.1 µM; active compounds read low
Enter your answer as a number in %; do not include the unit.

compound	targetEntity	resultType	testValue
O=C(c1cc(Cc2n[nH]c(=O)c3ccccc23)ccc1F)N1CCN(C(=O)C2CC2)CC1 + CC1OCC2(CCN(c3cnc(Sc4ccnc(N)c4Cl)c(N)n3)CC2)C1N	KRAS-mutant PDC multicell tumor spheroid viability	viability, T/C	118
Cn1ncnc1[C@H]1c2n[nH]c(=O)c3cc(F)cc(c23)N[C@@H]1c1ccc(F)cc1 + CC1OCC2(CCN(c3cnc(Sc4ccnc(N)c4Cl)c(N)n3)CC2)C1N	KRAS-mutant PDC multicell tumor spheroid viability	viability, T/C	51.4
Cn1ncnc1[C@H]1c2n[nH]c(=O)c3cc(F)cc(c23)N[C@@H]1c1ccc(F)cc1 + COc1cc2nc(C)nc(NC(C)c3cc(N)cc(C(F)(F)F)c3)c2cc1OC1CCOC1	KRAS-mutant PDC multicell tumor spheroid viability	viability, T/C	71.1
Cn1nccc1Nc1nccc(-c2cc3c(s2)C(C)(C)N(CCN2CCOCC2)C3=O)n1 + C=CC(=O)N1CCN(c2nc(=O)n(-c3c(C)ccnc3C(C)C)c3nc(-c4c(O)cccc4F)c(F)cc23)C(C)C1	KRAS-mutant PDC multicell tumor spheroid viability	viability, T/C	110
CCN1CCN(Cc2ccc(Nc3ncc(F)c(-c4cc(F)c5nc(C)n(C(C)C)c5c4)n3)nc2)CC1 + COc1cc2nc(C)nc(NC(C)c3cc(N)cc(C(F)(F)F)c3)c2cc1OC1CCOC1	KRAS-mutant PDC multicell tumor spheroid viability	viability, T/C	77.4

Prompt: Form field: reported viability, T/C of CCNC(=O)CC1N=C(c2ccc(Cl)cc2)c2cc(OC)ccc2-n2c(C)nnc21 (stereo unspecified) + C=CC(=O)N1CCN(c2nc(=O)n(-c3c(C)ccnc3C(C)C)c3nc(-c4c(O)cccc4F)c(F)cc23)C(C)C1
Response: 109

Prompt: Form field: reported viability, T/C of CN(C)C/C=C/C(=O)Nc1cc2c(Nc3ccc(F)c(Cl)c3)ncnc2cc1O[C@H]1CCOC1 + CC1OCC2(CCN(c3cnc(Sc4ccnc(N)c4Cl)c(N)n3)CC2)C1N
Response: 73.1

Prompt: Form field: reported viability, T/C of CC(=O)OC12COC1CC(O)C1(C)C(=O)C(O)C3=C(C)C(OC(=O)C(O)C(NC(=O)OC(C)(C)C)c4ccccc4)CC(O)(C(OC(=O)c4ccccc4)C21)C3(C)C (stereo unspecified) + C=CC(=O)N1CCN(c2nc(=O)n(-c3c(C)ccnc3C(C)C)c3nc(-c4c(O)cccc4F)c(F)cc23)C(C)C1
Response: 10.9

Prompt: Form field: reported viability, T/C of CC(C)n1nc(-c2ccc3oc(N)nc3c2)c2c(N)ncnc21 + CC1OCC2(CCN(c3cnc(Sc4ccnc(N)c4Cl)c(N)n3)CC2)C1N
Response: 21.6

Prompt: Form field: reported viability, T/C of CC1OCC2(CCN(c3cnc(Sc4ccnc(N)c4Cl)c(N)n3)CC2)C1N (stereo unspecified) + C=CC(=O)N1CCN(c2nc(=O)n(-c3c(C)ccnc3C(C)C)c3nc(-c4c(O)cccc4F)c(F)cc23)C(C)C1
Response: 88.4

Prompt: Form field: reported viability, T/C of CC1OCC2(CCN(c3cnc(Sc4ccnc(N)c4Cl)c(N)n3)CC2)C1N (stereo unspecified) + COc1cc2nc(C)nc(NC(C)c3cc(N)cc(C(F)(F)F)c3)c2cc1OC1CCOC1
Response: 92.1

Prompt: Form field: reported viability, T/C of COc1cc(Nc2ncc3c(n2)-c2ccc(Cl)cc2C(c2c(F)cccc2OC)=NC3)ccc1C(=O)O + CC1OCC2(CCN(c3cnc(Sc4ccnc(N)c4Cl)c(N)n3)CC2)C1N
Response: 35.1

Prompt: Form field: reported viability, T/C of CN(C)C/C=C/C(=O)Nc1cc2c(Nc3ccc(F)c(Cl)c3)ncnc2cc1O[C@H]1CCOC1 + CNCc1ccccc1-c1csc(C(C)Nc2nc(C)nc3cc(OC)c(OC)cc23)c1
Response: 97.7

Prompt: Form field: reported viability, T/C of Cn1ncnc1[C@H]1c2n[nH]c(=O)c3cc(F)cc(c23)N[C@@H]1c1ccc(F)cc1 + CNCc1ccccc1-c1csc(C(C)Nc2nc(C)nc3cc(OC)c(OC)cc23)c1
Response: 89.6

Prompt: Form field: reported viability, T/C of O=C(c1cc(Cc2n[nH]c(=O)c3ccccc23)ccc1F)N1CCN(C(=O)C2CC2)CC1 + C=CC(=O)N1CCN(c2nc(=O)n(-c3c(C)ccnc3C(C)C)c3nc(-c4c(O)cccc4F)c(F)cc23)C(C)C1
Response: 115

Prompt: Form field: reported viability, T/C of CC(C)n1nc(-c2ccc3oc(N)nc3c2)c2c(N)ncnc21 + CNCc1ccccc1-c1csc(C(C)Nc2nc(C)nc3cc(OC)c(OC)cc23)c1
Response: 21.6

Prompt: Form field: reported viability, T/C of COc1cc2nccc(Oc3ccc(NC(=O)C4(C(=O)Nc5ccc(F)cc5)CC4)cc3)c2cc1OC + C=CC(=O)N1CCN(c2nc(OCC3CCCN3C)nc3c2CCN(c2cccc4cccc(C)c24)C3)CC1CC#N
Response: 95

Prompt: Form field: reported viability, T/C of CCNC(=O)CC1N=C(c2ccc(Cl)cc2)c2cc(OC)ccc2-n2c(C)nnc21 (stereo unspecified) + CC1OCC2(CCN(c3cnc(Sc4ccnc(N)c4Cl)c(N)n3)CC2)C1N
Response: 51.5

Prompt: Form field: reported viability, T/C of CC1(C)CCC(CN2CCN(c3ccc(C(=O)NS(=O)(=O)c4ccc(NCC5CCOCC5)c([N+](=O)[O-])c4)c(Oc4cnc5[nH]ccc5c4)c3)CC2)=C(c2ccc(Cl)cc2)C1 + C=CC(=O)N1CCN(c2nc(=O)n(-c3c(C)ccnc3C(C)C)c3nc(-c4c(O)cccc4F)c(F)cc23)C(C)C1
Response: 104

Prompt: Form field: reported viability, T/C of CC(C)n1nc(-c2ccc3oc(N)nc3c2)c2c(N)ncnc21 + C=CC(=O)N1CCN(c2nc(=O)n(-c3c(C)ccnc3C(C)C)c3nc(-c4c(O)cccc4F)c(F)cc23)C(C)C1
Response: 24

Prompt: Form field: reported viability, T/C of CC1COCCN1c1cc(-c2ccnn2C)c2ccnc(-c3ccn[nH]3)c2n1 (stereo unspecified) + C=CC(=O)N1CCN(c2nc(OCC3CCCN3C)nc3c2CCN(c2cccc4cccc(C)c24)C3)CC1CC#N
Response: 5.2
